Origin of the recorded values: patent US20240336606A1

molecular target: binding of KRAS^G12C to SOS1 (Homo sapiens, UniProt Q07889); construct: Tag1 (unspecified); assay: Inhibition of the binding of KRAS^G12C to SOS1; settings: Tag1-SOS1 / Tag2-KRAS^G12C, 2 h incubation at room temperature; read-out: IC50 (nM), inhibitory activity on the binding of KRAS^G12C to SOS1
Sequence (Q07889 whole entry, stated change not applied): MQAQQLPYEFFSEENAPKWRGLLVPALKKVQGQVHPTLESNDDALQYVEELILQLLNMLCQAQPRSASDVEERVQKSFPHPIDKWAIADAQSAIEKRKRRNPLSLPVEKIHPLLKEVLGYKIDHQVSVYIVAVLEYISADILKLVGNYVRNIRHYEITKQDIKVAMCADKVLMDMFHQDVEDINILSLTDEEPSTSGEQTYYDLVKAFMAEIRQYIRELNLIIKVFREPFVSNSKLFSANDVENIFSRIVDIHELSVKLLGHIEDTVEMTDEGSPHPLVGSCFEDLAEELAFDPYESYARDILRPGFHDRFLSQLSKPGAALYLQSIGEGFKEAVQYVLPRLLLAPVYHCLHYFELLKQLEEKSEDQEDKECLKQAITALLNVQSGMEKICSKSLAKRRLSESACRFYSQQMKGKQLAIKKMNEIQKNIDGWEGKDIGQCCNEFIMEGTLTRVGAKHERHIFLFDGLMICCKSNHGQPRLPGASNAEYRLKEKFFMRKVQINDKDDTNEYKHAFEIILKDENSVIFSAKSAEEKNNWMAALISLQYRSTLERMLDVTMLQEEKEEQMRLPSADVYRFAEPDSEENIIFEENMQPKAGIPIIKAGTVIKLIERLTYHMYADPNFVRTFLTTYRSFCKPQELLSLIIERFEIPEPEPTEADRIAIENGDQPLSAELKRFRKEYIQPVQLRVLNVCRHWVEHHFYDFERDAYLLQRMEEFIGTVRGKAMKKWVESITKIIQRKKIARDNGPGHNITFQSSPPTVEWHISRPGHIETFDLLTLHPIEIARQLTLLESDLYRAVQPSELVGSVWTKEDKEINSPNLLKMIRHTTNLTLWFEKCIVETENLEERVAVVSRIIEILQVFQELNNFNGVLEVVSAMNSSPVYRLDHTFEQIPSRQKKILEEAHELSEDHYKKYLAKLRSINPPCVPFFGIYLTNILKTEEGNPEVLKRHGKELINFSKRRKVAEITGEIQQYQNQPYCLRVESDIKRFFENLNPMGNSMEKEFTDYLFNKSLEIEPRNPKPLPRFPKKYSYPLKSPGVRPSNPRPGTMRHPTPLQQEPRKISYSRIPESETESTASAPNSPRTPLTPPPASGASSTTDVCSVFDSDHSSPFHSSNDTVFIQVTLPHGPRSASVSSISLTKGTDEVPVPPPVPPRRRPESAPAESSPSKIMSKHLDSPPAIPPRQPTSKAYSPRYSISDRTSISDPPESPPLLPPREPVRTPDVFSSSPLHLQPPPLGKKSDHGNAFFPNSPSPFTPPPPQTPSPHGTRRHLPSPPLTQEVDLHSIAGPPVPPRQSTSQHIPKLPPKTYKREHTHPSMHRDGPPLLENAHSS
readout_name: IC50 (nM)

Here is how some compounds turned out for IC50.
COc1cc2nc(C)nc(N[C@H](C)c3cccc(C(F)(F)C(C)(C)O)c3F)c2cc1OC[C@@H]1COCCO1
9.2
COc1cc2nc(C)nc(N[C@H](C)c3cc(N)cc(C(F)(F)F)c3)c2cc1OC[C@@H](C)OC1COC1
6.2
COc1cc2nc(C)nc(N[C@H](C)c3cc(N)cc(C(F)(F)F)c3)c2cc1OCCOc1cccnc1
5.3
COCCOc1cc2c(N[C@H](C)c3cccc(C(F)(F)CO)c3)nc(C)nc2cc1OC
4.1
COc1cc2nc(C)nc(N[C@H](C)c3cc(N)cc(C(F)(F)F)c3)c2cc1OCCN(C)CC1CC(F)(F)C1
7
COc1cc2nc(C)nc(N[C@H](C)c3cc(N)cc(C(F)(F)F)n3)c2cc1OCCOC1(C)CCC1
15

1: COCCOc1cc2c(N[C@H](C)c3cc(C(F)(F)C(C)(C)O)ccc3F)nc(C)nc2cc1OC
2: COc1cc2nc(C)nc(N[C@H](C)c3cc(N)cc(C(F)(F)F)c3)c2cc1OCCOC1(C)COC1
IN: Hello, I am sorting some records. Could you say if 1 or 2 has the smaller IC50 value? Give the label under which the chosen entry appears.
OUT: 2

* * *

biological target: binding of KRAS^G12C to SOS1 (Homo sapiens, UniProt Q07889); construct: Tag1 (unspecified); experiment: Inhibition of the binding of KRAS^G12C to SOS1; settings: Tag1-SOS1 / Tag2-KRAS^G12C, 2 h incubation at room temperature; read-out: IC50 (nM), inhibitory activity on the binding of KRAS^G12C to SOS1
readout_name: IC50 (nM)

Here is how some compounds turned out for IC50.
COc1cc2nc(C)nc(N[C@H](C)c3cccc(C(F)(F)C(C)(C)O)c3F)c2cc1OC[C@@H]1CN(C)CCO1 [Example 25]
3.9
COCC(COC)Oc1cc2c(N[C@H](C)c3cc(N)cc(C(F)(F)F)c3)nc(C)nc2cc1OC [Example 59]
4.7
COc1cc2nc(C)nc(N[C@H](C)c3cccc(C(F)(F)C(C)(C)O)c3F)c2cc1OC[C@@H]1CNCCO1 [Example 24]
7.7

a: COc1cc2nc(C)nc(N[C@H](C)c3cc(N)cc(C(F)(F)F)c3)c2cc1OCCOC1(C)CCC1 [Example 64]
b: COCCOc1cc2c(N[C@H](C)c3cc(N)cc(OC(F)(F)F)c3)nc(C)nc2cc1OC [Example 83]
c: COc1cc2nc(C)nc(N[C@H](C)c3cc(N)cc(C(F)(F)F)c3)c2cc1OCCOC1CC1(F)F (stereo partly shown) [Example 82]
d: COc1cc2nc(C)nc(N[C@H](C)c3cc(N)cc(C(F)(F)F)c3)c2cc1OCCN(C)S(C)(=O)=O [Example 13]
IN: Hello, I need these entries ordered by IC50, highest reading first. Thanks! Write the labels, ordered according to the request.
OUT: b, a, c, d
(b: 15 nM, a: 8.7 nM, c: 4.5 nM, d: 2.5 nM)

* * *

Target: binding of KRAS^G12C to SOS1 (Homo sapiens)
Construct: Tag1 (unspecified)
Assay: Inhibition of the binding of KRAS^G12C to SOS1
Conditions: Tag1-SOS1 / Tag2-KRAS^G12C, 2 h incubation at room temperature; read-out: IC50 (nM), inhibitory activity on the binding of KRAS^G12C to SOS1
Description: • (1) Gradient dilution of the test compounds: 10 mM mother solution (dissolved in 100% DMSO) was added to a 384-well test plate, the final content of DMSO being 0.25%. (2) 5 μL of Tag1-SOS1 solution was added to the test plate, and 5 μL of dilution buffer was added to the control group. (3) 5 μL of Tag2-KRAS^G12C solution was added to the test plate. […] (6) The IC50 values for the compounds were finally calculated using GraphPad Prism software, and a curve was fit and plotted. […]
readout_name: IC50 (nM)

Here is how some molecules turned out for IC50.
COCCOc1cc2c(N[C@H](C)c3cc(OC)cc(C(F)(F)C(C)(C)O)c3)nc(C)nc2cc1OC
170
COCC1(COc2cc3c(N[C@H](C)c4cc(N)cc(C(F)(F)F)c4)nc(C)nc3cc2OC)CC1
9.6
COc1cc2nc(C)nc(N[C@H](C)c3cc(N)cc(C(F)(F)F)c3)c2cc1OCC1(C(C)OC)CC1 (stereo partly drawn) [Example 65]
16
COCCOc1cc2c(N[C@H](C)c3cc(N)cc(C(F)(F)C(C)(C)O)c3)nc(C)nc2cc1OC
3.1
COc1cc2nc(C)nc(N[C@H](C)c3cc(N)cc(C(F)(F)F)c3)c2cc1OCCCOC1CC1
3.7
COc1cc2nc(C)nc(N[C@H](C)c3cccc(C(F)(F)F)c3F)c2cc1OC[C@@H]1CCCN1
70
COCCOc1cc2c(N[C@H](C)c3cccc(C(F)(F)C(C)(C)O)n3)nc(C)nc2cc1OC
188
COc1cc2nc(C)nc(N[C@H](C)c3cccc(C(F)(F)F)c3F)c2cc1OC[C@@H]1CCCN1C(=O)OC(C)(C)C
1090

A: COc1cc2nc(C)nc(N[C@H](C)c3cccc(C(F)(F)C(C)(C)O)c3F)c2cc1OC[C@@H]1CCCN1C
B: COCCOc1cc2c(N[C@@H](C)c3cccc(C(F)(F)C(C)(C)O)c3F)nc(C)nc2cc1OC
IN: Hello, I am sorting some records. Could you say if A or B has the smaller IC50 value? Give the label under which the chosen entry appears.
OUT: A
(A: 4.6 nM, B: 314 nM)

A: COCCOc1cc2c(N[C@H](C)c3cc(F)cc(C(F)(F)C(C)(C)O)c3)nc(C)nc2cc1OC
B: COc1cc2nc(C)nc(N[C@H](C)c3cc(N)cc(C(F)(F)F)c3)c2cc1OCC1(C(C)OC)CC1 (single isomer, unassigned) [Example 65A]
C: Cc1nc(N[C@H](C)c2cc(N)cc(C(F)(F)F)c2)c2cc(OCCOC3CC3)c(C(F)(F)F)cc2n1
IN: Hey, quick one: sort these by IC50, low to high? Write the labels, ordered according to the request.
OUT: A, B, C
(A: 6.2 nM, B: 18 nM, C: 167 nM)

* * *

target: binding of KRAS^G12C to SOS1 (Homo sapiens, UniProt Q07889); construct: Tag1 (unspecified); assay: Inhibition of the binding of KRAS^G12C to SOS1; conditions: Tag1-SOS1 / Tag2-KRAS^G12C, 2 h incubation at room temperature; read-out: IC50 (nM), inhibitory activity on the binding of KRAS^G12C to SOS1
readout_name: IC50 (nM)

Here is how some molecules turned out for IC50.
COCC1(C(C)Oc2cc3c(N[C@H](C)c4cc(N)cc(C(F)(F)F)c4)nc(C)nc3cc2OC)CC1 (stereo partly shown) [Example 63]
12
COCCOc1cc2c(N[C@H](C)c3cc(N)cc(C(F)(F)F)n3)nc(C)nc2cc1OC [Example 52]
31
COc1cc2nc(C)nc(N[C@H](C)c3cc(C(F)(F)F)cc(N)n3)c2cc1OCCOC1COC1 [Example 60]
18

P: COc1cc2nc(C)nc(N[C@H](C)c3cc(N)cc(C(F)(F)F)c3)c2cc1OCC1(C(C)OC)CC1 (single isomer, unassigned) [Example 65B]
Q: COCCOc1cc2c(N[C@H](C)c3cc(C(F)(F)F)cc(N)n3)nc(C)nc2cc1OC [Example 51]
R: COc1cc2nc(C)nc(N[C@H](C)c3cc(N)cc(C(F)(F)F)c3)c2cc1OC[C@@H]1CCCN1C(C)=O [Example 14]
IN: Hey, quick one: sort these by IC50, low to high? Write the labels, ordered according to the request.
OUT: P, R, Q
(P: 7.3 nM, R: 16 nM, Q: 24 nM)

* * *

target: binding of KRAS^G12C to SOS1 (Homo sapiens); construct: Tag1 (unspecified); assay: Inhibition of the binding of KRAS^G12C to SOS1; conditions: Tag1-SOS1 / Tag2-KRAS^G12C, 2 h incubation at room temperature; read-out: IC50 (nM), inhibitory activity on the binding of KRAS^G12C to SOS1
readout_name: IC50 (nM)

CNCC1(COc2cc3c(N[C@H](C)c4cccc(C(F)(F)F)c4F)nc(C)nc3cc2OC)CC1 [Example 54]
15

A: COc1cc2nc(C)nc(N[C@H](C)c3cc(N)cc(C(F)(F)F)c3)c2cc1OCCN(C)CC1CCC1 [Example 10]
B: COCCOc1cc2c(N[C@H](C)c3cc(C(F)(F)C(C)(C)O)ccn3)nc(C)nc2cc1OC [Example 75]
C: COc1cc2nc(C)nc(N[C@H](C)c3cc(N)cc(C(F)(F)F)c3F)c2cc1OCCOC1CC1 [Example 35]
IN: Hello, I need these entries ordered by IC50, highest reading first. Thanks! Write the labels, ordered according to the request.
OUT: B, C, A
